Test system: FT3469 (normal neural stem cell line);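 note: nuclei counted by high-content imaging of Hoechst-stained cells in laminin-coated 384-well plates, relative to 0.1% DMSO vehicle wells, with staurosporine as cell-death control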
test.name: surviving fraction (nuclei count normalised to DMSO); higher = more cells surviving (less toxic)
details: 37 nM; exposure time: 72 h
Counter-ions that a name gives are not always drawn.
Answer FALSE if surviving fraction is under 0.9, and TRUE if it is 0.9 or more.

Past entries and their recorded results:
COc1cc([C@@H]2c3cc4c(cc3[C@@H](O[C@@H]3O[C@@H]5CO[C@@H](c6cccs6)O[C@H]5[C@H](O)[C@H]3O)[C@H]3COC(=O)[C@H]23)OCO4)cc(OC)c1O [Teniposide]    FALSE
CC(C)(Oc1ccc(C2CC2(Cl)Cl)cc1)C(=O)O (stereo not drawn) [Ciprofibrate]    TRUE
C[C@H]1O[C@@H](O[C@H]2[C@@H](O)C[C@H](O[C@H]3[C@@H](O)C[C@H](O[C@H]4CC[C@@]5(C)[C@H](CC[C@@H]6[C@@H]5C[C@@H](O)[C@]5(C)[C@@H](C7=CC(=O)OC7)CC[C@]65O)C4)O[C@@H]3C)O[C@@H]2C)C[C@H](O)[C@@H]1O    FALSE

Given the entry `CC[C@@H]1C(=O)N(C)c2cnc(Nc3ccc(C(=O)N[C@H]4CC[C@H](N5CCN(CC6CC6)CC5)CC4)cc3OC)nc2N1C(C)C` , answer whether its surviving fraction meets or surpasses 0.9.
FALSE

Field entry: `Cc1cc(C)c(CN2CCc3c(Cl)cc(-c4c(C)noc4C)c(Cl)c3C2=O)c(=O)[nH]1`
FALSE

Field entry: `CO[C@H]1C(=O)[C@]2(C)[C@@H](OC)C[C@H]3OC[C@@]3(OC(C)=O)[C@H]2[C@H](OC(=O)c2ccccc2)[C@]2(O)C[C@H](OC(=O)[C@H](O)[C@@H](NC(=O)OC(C)(C)C)c3ccccc3)C(C)=C1C2(C)C`
FALSE

Field entry: CC(C)C[C@H]1C(=O)N2CCC[C@H]2[C@]2(O)O[C@](NC(=O)[C@@H]3C=C4c5cccc6[nH]c(Br)c(c56)C[C@H]4N(C)C3)(C(C)C)C(=O)N12 [Bromocryptine mesylate]
TRUE

Field entry: `COc1nc(C)nc(Cl)c1NC1=NCCN1`
TRUE

Field entry: `N=C(NCCCCCCNC(=N)NC(=N)Nc1ccc(Cl)cc1)NC(=N)Nc1ccc(Cl)cc1`
TRUE

Field entry: COc1c(N2CCNC(C)C2)c(F)cc2c(=O)c(C(=O)O)cn(C3CC3)c12 (stereo not drawn)
FALSE

Field entry: `Cc1ccc2c(c1)C1(CCN(CCc3nc(-c4ccccc4)oc3C)CC1)OC(=O)N2`
TRUE

Field entry: CCC(C)(C)c1ccc(CC(C)CN2C[C@@H](C)O[C@@H](C)C2)cc1 (stereo partly drawn) [Amorolfine hydrochloride]
TRUE
